- measured on: PCSK9 (Homo sapiens, UniProt Q8NBP7;Q8NBP7 Q8NBP7:31-152,Q8NBP7:153-692)
- Sequence (Q8NBP7 31-152, chain 1 of 2): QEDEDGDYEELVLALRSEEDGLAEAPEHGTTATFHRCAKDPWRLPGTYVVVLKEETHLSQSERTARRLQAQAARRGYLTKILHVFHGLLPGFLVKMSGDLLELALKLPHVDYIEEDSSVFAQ
- Sequence (Q8NBP7 153-692, chain 2 of 2): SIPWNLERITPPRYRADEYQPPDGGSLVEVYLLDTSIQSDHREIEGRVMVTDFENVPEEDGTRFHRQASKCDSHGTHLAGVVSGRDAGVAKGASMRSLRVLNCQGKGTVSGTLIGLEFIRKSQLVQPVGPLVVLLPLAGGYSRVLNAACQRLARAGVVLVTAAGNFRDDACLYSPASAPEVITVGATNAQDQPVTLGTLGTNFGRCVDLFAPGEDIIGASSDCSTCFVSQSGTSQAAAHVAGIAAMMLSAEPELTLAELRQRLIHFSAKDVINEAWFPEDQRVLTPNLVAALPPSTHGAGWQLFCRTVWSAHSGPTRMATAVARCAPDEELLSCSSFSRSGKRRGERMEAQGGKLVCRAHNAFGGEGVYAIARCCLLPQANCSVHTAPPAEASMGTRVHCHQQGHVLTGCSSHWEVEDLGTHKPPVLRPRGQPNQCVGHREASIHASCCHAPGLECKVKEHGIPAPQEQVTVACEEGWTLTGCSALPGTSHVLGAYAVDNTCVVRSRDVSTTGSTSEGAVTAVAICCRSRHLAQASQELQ
- test summary: inhibition; inhibition of 20 nM PCSK9 binding to immobilized LDLR by SPR; HEPES, NaCl, 0.1 mM CaCl2, pH 7.5
- assay setup: tags: ACROBiosystems PC9-H5223
readout name: IC50

[[record]]
binder = "TGCTACCGTTGTTTACCCTGCCACCTTCTGGAGTCCAGATGTAGGTAG (ssDNA, side chains as PCSK9-Evo5, 3' idT) [PCSK9-Evo5-syn]"
readout_name = "IC50"
data_value = "~9 nM"

